Biological target: human CD137 on DO11.10-hCD137 cells (human, UniProt Q07011 24-255)
Sequence (Q07011 24-255): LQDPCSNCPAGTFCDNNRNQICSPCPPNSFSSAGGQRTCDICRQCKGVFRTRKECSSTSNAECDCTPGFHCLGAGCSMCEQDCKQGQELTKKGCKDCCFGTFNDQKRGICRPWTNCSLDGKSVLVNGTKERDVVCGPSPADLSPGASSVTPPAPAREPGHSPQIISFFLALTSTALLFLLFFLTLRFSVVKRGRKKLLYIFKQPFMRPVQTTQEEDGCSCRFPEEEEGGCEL
Test: cell-based or functional assay
metric: Emax (mIL-2 pg/ml), DO11.10-hCD137 T cell assay, crosslinked (pg/mL)
Response body: numeric value in pg/mL, unit text excluded.

Ask: Query: Emax (mIL-2 pg/ml), DO11.10-hCD137 T cell assay, crosslinked; subject: FS20-22-49AA/FS30-35-14 (bispecific antibody, human IgG1, kappa, L234A L235A, V domains shown, M100F (Kabat) to A against FS30-35; also called FS30-35-14 in mAb^2 format) VH: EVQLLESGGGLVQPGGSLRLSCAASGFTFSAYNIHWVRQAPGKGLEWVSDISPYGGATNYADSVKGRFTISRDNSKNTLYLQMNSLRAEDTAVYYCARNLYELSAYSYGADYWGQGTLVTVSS VL: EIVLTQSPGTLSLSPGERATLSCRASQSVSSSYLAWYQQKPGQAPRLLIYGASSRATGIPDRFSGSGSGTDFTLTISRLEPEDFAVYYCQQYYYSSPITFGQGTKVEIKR
Reply: 19800

Ask: Return reported Emax (mIL-2 pg/ml), DO11.10-hCD137 T cell assay, crosslinked; argument: FS20-22-49AA/FS30-10-12 (bispecific antibody, human IgG1, kappa, L234A L235A, V domains shown, M97 (Kabat) to T against FS30-10; also called FS30-10-12 in mAb^2 format) VH: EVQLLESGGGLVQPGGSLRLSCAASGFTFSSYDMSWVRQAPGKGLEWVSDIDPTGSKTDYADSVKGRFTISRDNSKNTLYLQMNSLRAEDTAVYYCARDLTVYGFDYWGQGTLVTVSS VL: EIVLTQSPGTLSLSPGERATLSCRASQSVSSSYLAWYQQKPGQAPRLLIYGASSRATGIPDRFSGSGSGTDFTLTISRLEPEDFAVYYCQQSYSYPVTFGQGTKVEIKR
Reply: 17200

Ask: So what does the record say about Emax (mIL-2 pg/ml), DO11.10-hCD137 T cell assay, crosslinked for FS20-22-49AA/FS30-10-16 (bispecific antibody, human IgG1, kappa, L234A L235A, V domains shown, M97 (Kabat) to L against FS30-10; also called FS30-10-16 in mAb^2 format) VH: EVQLLESGGGLVQPGGSLRLSCAASGFTFSSYDMSWVRQAPGKGLEWVSDIDPTGSKTDYADSVKGRFTISRDNSKNTLYLQMNSLRAEDTAVYYCARDLLVYGFDYWGQGTLVTVSS VL: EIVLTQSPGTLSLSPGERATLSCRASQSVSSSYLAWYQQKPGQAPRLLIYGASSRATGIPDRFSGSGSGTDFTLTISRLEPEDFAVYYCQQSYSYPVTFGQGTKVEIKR ?
Reply: 16300

Ask: Data request, read-out Emax (mIL-2 pg/ml), DO11.10-hCD137 T cell assay, crosslinked, for FS20-22-49AA/FS30-10-3 (bispecific antibody, human IgG1, kappa, L234A L235A, V domains shown, M97 (Kabat) to N against FS30-10; also called FS30-10-3 in mAb^2 format) VH: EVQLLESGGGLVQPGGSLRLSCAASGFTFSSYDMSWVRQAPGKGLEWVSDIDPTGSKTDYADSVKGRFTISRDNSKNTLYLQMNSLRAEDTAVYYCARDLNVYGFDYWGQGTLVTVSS VL: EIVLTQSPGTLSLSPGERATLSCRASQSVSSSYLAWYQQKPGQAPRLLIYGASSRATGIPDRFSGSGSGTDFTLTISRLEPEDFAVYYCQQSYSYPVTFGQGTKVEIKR
Reply: 17000
